src = ChEMBL document CHEMBL2046268

Quick list: pIC50 per entry.
Tested on: A549
Assay summary: Cytotoxicity against human A549 cells assessed as cell viability after 72 hrs by MTT assay
Type: functional, cell-based
Condition set: A549, 72 h
Please report pIC50 as the negative decimal logarithm of the molar concentration, giving only the number.

Answered cases to consult:
Query block: Give its pIC50 value. Item: `CC1=C(CO[Si](C)(C)C(C)(C)C)C(=O)O[C@@H]([C@@H](C)[C@H]2CC[C@H]3[C@@H]4C[C@H]5O[C@]56C(=O)C=CC(=O)[C@]6(C)[C@H]4CC[C@]23C)C1`
Result block: 5.54

Query block: Give its pIC50 value. Item: `CC1=C(C)C(=O)O[C@@H]([C@@H](C)[C@H]2CC[C@H]3[C@@H]4C[C@H]5O[C@]56[C@@H](O)C=CC(=O)[C@]6(C)[C@H]4CC[C@]23C)C1`
Result block: 5.82

Query block: Give its pIC50 value. Item: CC1=C(CO)C(=O)O[C@@H]([C@@H](C)C2=CC[C@H]3[C@@H]4C[C@H]5O[C@]56[C@@H](O)C=CC(=O)[C@]6(C)[C@H]4CC[C@]23C)C1 [WITHARISTATIN]
Result block: 5.64

Query block: Give its pIC50 value. Item: `CC1=C(CO)C(=O)O[C@@H]([C@@H](C)[C@H]2CC[C@H]3[C@@H]4C[C@H](O)[C@]5(O)[C@@H](O)C=CC(=O)[C@]5(C)[C@H]4CC[C@]23C)C1`
Result block: 4.44

Query block: Give its pIC50 value. Item: `CC1=C(C)C(=O)O[C@@H]([C@@H](C)C2=CC[C@H]3[C@@H]4C[C@H]5O[C@]56[C@@H](O)C=CC(=O)[C@]6(C)[C@H]4CC[C@]23C)C1`
Result block: 5.26

Query block: Give its pIC50 value. Item: CC1=C(CO)C(=O)O[C@@H]([C@@H](C)[C@H]2CC[C@H]3[C@@H]4C[C@H]5O[C@]56[C@@H](O)C=CC(=O)[C@]6(C)[C@H]4CC[C@]23C)C1 [WITHAFERIN A]
Result block: 5.82

Further cases:
Query block: Give its pIC50 value. Item: `CC1=C(CO)C(=O)O[C@@H]([C@@H](C)[C@H]2CC[C@H]3[C@@H]4C[C@H]5O[C@]56C(=O)C=CC(=O)[C@]6(C)[C@H]4CC[C@]23C)C1`
Result block: 4.89
